Value source: ChEMBL document CHEMBL3124866

Test system: Staphylococcus aureus
assay.notes: Antibacterial activity against methicillin-resistant Staphylococcus aureus ATCC 33591 after 24 hrs by broth microdilution assay
Format: functional
run.parameters: ATCC 33591, 24 h
Field: MIC. Provide a value for each of the compounds that follow.

// query Look up and state reported MIC for CCCCCCCCN(Cc1ccccc1)C(=O)[C@@H](N)CCCCN.O=C(O)C(F)(F)F.O=C(O)C(F)(F)F
// result > 100 µg/mL

// query Look up and state reported MIC for CCCCN(Cc1ccccc1)C(=O)[C@@H](N)CCCCN.O=C(O)C(F)(F)F.O=C(O)C(F)(F)F
// result > 100 µg/mL

// query Look up and state reported MIC for CCCCN(Cc1cccc2ccccc12)C(=O)[C@@H](N)CCCCN.O=C(O)C(F)(F)F.O=C(O)C(F)(F)F
// result > 100 µg/mL
